The entries below come with measured self-cleavage values attached.
B1: Hairpin Ribozyme (parent)
chain: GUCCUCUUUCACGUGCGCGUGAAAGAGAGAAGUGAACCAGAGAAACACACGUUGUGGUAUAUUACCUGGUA

variants of: B1; assay: self-cleavage, relative activity (ratio to wild type); higher = more cleavage; co-transcriptional

residue-change | self-cleavage
A43G A64G | 0.132
U7C C48A | 0.114
U5C U53C | 0.317
C6A G13C | 0.341
U8C C65A | 0.788
G17C U63G | 0.125
G32A U63C | 0.0959
G17A C38A | 0.169
A11G A61G | 0.166
G15A G57U | 0.3
U2G C18U | 0.378
A47G U53G | 0.338
U14G C46U | 0.21
A31U U62A | 0.115
A44U U63G | 0.209
G42C A47G | 0.116
U20C C66A | 0.309
U5C A47G | 0.332
U14G C18G | 0.694
G56A C66G | 0.114
G34U | 1.42
C18U C48G | 0.0965

Taken from the RNAGym collection of RNA variant scans (doi:10.7554/elife.80360).
